System: HepG2
Run description: Cytotoxicity against human HepG2 cells assessed as reduction in cell viability after 96 hrs by MTT assay
Assay type: cell-based
Measurement conditions: HepG2, 96 h
pIC50: −log10 of the molar value.
Overview of reported pIC50 across a group of compounds:
Parameter: pIC50

# Line notation, Numeric readout
measured = [
    ("CC(=O)C[C@@H]1OCc2cc(O)c3c(c21)O[C@]1(C3)[C@H](C)CC[C@H]2C(C)(C)[C@H](O)CC[C@@]21C", 4.61),
    ("CC(=O)O[C@H]1C(=O)[C@@]2(C)[C@H]([C@H](OC(=O)c3ccccc3)[C@]3(O)C[C@H](OC(=O)[C@H](O)[C@@H](NC(=O)c4ccccc4)c4ccccc4)C(C)=C1C3(C)C)[C@]1(OC(C)=O)CO[C@@H]1C[C@@H]2O", 8.20),
    ("CC(=O)O[C@@H]1CC[C@@]2(C)[C@@H](CC[C@@H](C)[C@]23Cc2c(O)cc(C)c(C=O)c2O3)C1(C)C", 4.61),
    ("Cc1cc(O)c2c(c1C=O)O[C@]1(C2)[C@H](C)CC[C@H]2C(C)(C)[C@H](O)CC[C@@]21C", 4.74),
]
